test system: rodent lifetime carcinogenesis bioassay, tumor incidence TD50; test: carcinogenic potency in animals, long-term in vivo studies, CPDB compilation (AID 1745844); details: rat; strain MRC-Wistar; males; in drinking water; site: bone; lesion: osteosarcoma; dosed 52 weeks; study length 70 weeks
ENDPOINT LABEL: TD50

INPUT: Please tell me the measured TD50 for NC(=O)N(CCO)N=O ; system: rodent lifetime carcinogenesis bioassay, tumor incidence TD50.
OUTPUT: 1.52 mg/kg/day

----------
system: rodent lifetime carcinogenesis bioassay, tumor incidence TD50; assay: carcinogenic potency in animals, long-term in vivo studies, CPDB compilation (AID 1745844); conditions: rat; strain Fischer 344; males; by gavage; site: lung; lesion: alveolar/bronchiolar adenoma + alveolar/bronchiolar carcinoma; dosed 103 weeks; study length 105 weeks
ENDPOINT LABEL: TD50

INPUT: For COc1c2occc2cc2ccc(=O)oc12 , write its TD50.
OUTPUT: 57.1 mg/kg/day

----------
system: rodent lifetime carcinogenesis bioassay, tumor incidence TD50; assay: carcinogenic potency in animals, long-term in vivo studies, CPDB compilation (AID 1745844); conditions: rat; strain Fischer 344; males; in feed; site: kidney; lesion: tubule adenoma + tubule carcinoma; dosed 66 weeks; study length 66 weeks
ENDPOINT LABEL: TD50 (mg/kg/day)
Unit mg/kg/day implied. Number only.

INPUT: Provide the reported TD50 (system: rodent lifetime carcinogenesis bioassay, tumor incidence TD50) for Nc1c(Br)cc(Br)c2c1C(=O)c1ccccc1C2=O
OUTPUT: 1770

----------
tested on: rodent lifetime carcinogenesis bioassay, tumor incidence TD50; test: carcinogenic potency in animals, long-term in vivo studies, CPDB compilation (AID 1745844); conditions: rat; strain Fischer 344; females; by gavage; site: liver; lesion: hepatocellular carcinoma; dosed 30 weeks; study length 60 weeks
ENDPOINT LABEL: TD50

INPUT: Give the value of TD50 reported for the following: CCCN(CCC)N=O
OUTPUT: 0.186 mg/kg/day

----------
test system: rodent lifetime carcinogenesis bioassay, tumor incidence TD50; experiment: carcinogenic potency in animals, long-term in vivo studies, CPDB compilation (AID 1745844); settings: rat; strain Fischer 344; females; by gavage; site: urinary bladder; lesion: one or several types; types not named; dosed 30 weeks; study length 65 weeks
ENDPOINT LABEL: TD50

INPUT: For the molecule CCCCCCCCCCCCN(C)N=O , give its reported TD50.
OUTPUT: 0.656 mg/kg/day

----------
system: rodent lifetime carcinogenesis bioassay, tumor incidence TD50; test: carcinogenic potency in animals, long-term in vivo studies, CPDB compilation (AID 1745844); details: rat; strain Fischer 344; females; in drinking water; site: liver; lesion: hyperplastic nodule; dosed 102 weeks; study length 130 weeks
ENDPOINT LABEL: TD50 (mg/kg/day)
Could you give me the number in mg/kg/day? Just the number is fine.

INPUT: Name the value of TD50 reported for C=CC(OCC)OCC when tested on rodent lifetime carcinogenesis bioassay, tumor incidence TD50.
OUTPUT: 131

----------
test system: rodent lifetime carcinogenesis bioassay, tumor incidence TD50; assay: carcinogenic potency in animals, long-term in vivo studies, CPDB compilation (AID 1745844); details: mouse; strain CF-1; males; by gavage; site: any site (literature study); lesion: several types; types named in the paper; dosed 80 weeks; study length 93 weeks
The source made the active and inactive calls. How the calls were made is not given here.
ENDPOINT LABEL: TD50

INPUT: Identify measured TD50 corresponding to ClC(Cl)Cl
OUTPUT: 140 mg/kg/day (inactive)

----------
tested on: rodent lifetime carcinogenesis bioassay, tumor incidence TD50; assay: carcinogenic potency in animals, long-term in vivo studies, CPDB compilation (AID 1745844); details: rat; strain Fischer 344; males; in feed; site: thyroid gland; lesion: follicular-cell adenoma + follicular-cell carcinoma; dosed 59 weeks; study length 104 weeks
ENDPOINT LABEL: TD50

INPUT: Indicate the recorded TD50 value for this compound: CN(C)c1ccc(Cc2ccc(N(C)C)cc2)cc1
OUTPUT: 16.5 mg/kg/day

----------
tested on: rodent lifetime carcinogenesis bioassay, tumor incidence TD50; assay: carcinogenic potency in animals, long-term in vivo studies, CPDB compilation (AID 1745844); details: rat; strain Sprague-Dawley; females; by gavage; site: lung; lesion: several types; types named in the paper; dosed 32 weeks; study length 101 weeks
ENDPOINT LABEL: TD50

INPUT: Give the reported TD50 for this compound. O=NN(CCCC(F)(F)F)CCCC(F)(F)F
OUTPUT: 1.12 mg/kg/day

----------
tested on: rodent lifetime carcinogenesis bioassay, tumor incidence TD50; assay: carcinogenic potency in animals, long-term in vivo studies, CPDB compilation (AID 1745844); details: mouse; strain Swiss albino; males; in drinking water; site: lung; lesion: adenoma; dosed 101 weeks; study length 101 weeks
ENDPOINT LABEL: TD50 (mg/kg/day)
Return type: number; implicit unit mg/kg/day.

INPUT: Item NNC(=O)c1cccnc1 : provide TD50
OUTPUT: 428

----------
test system: rodent lifetime carcinogenesis bioassay, tumor incidence TD50; assay: carcinogenic potency in animals, long-term in vivo studies, CPDB compilation (AID 1745844); conditions: rat; strain F344/DuCrj; females; in feed; site: all sites; lesion: malignant lymphoma; dosed 112 weeks; study length 112 weeks
ENDPOINT LABEL: TD50

INPUT: Note TD50 for the compound shown: Cc1nc(N)cc2[nH]c3ccccc3c12
OUTPUT: 29 mg/kg/day

----------
test system: rodent lifetime carcinogenesis bioassay, tumor incidence TD50; assay: carcinogenic potency in animals, long-term in vivo studies, CPDB compilation (AID 1745844); details: rat; strain Fischer 344; males; in feed; site: lung; lesion: squamous-cell carcinoma; dosed 12 weeks; study length 103 weeks
ENDPOINT LABEL: TD50 (mg/kg/day)
Provide only the numeric value, understood in mg/kg/day.

INPUT: Provide rodent lifetime carcinogenesis bioassay, tumor incidence TD50 TD50 reading for OCC(CO)(CBr)CBr .
OUTPUT: 484

----------
test system: rodent lifetime carcinogenesis bioassay, tumor incidence TD50; test: carcinogenic potency in animals, long-term in vivo studies, CPDB compilation (AID 1745844); details: rat; strain Sprague-Dawley; males; by gavage; site: liver; lesion: angiosarcoma; dosed 59 weeks; study length 129 weeks
ENDPOINT LABEL: TD50

INPUT: Return the recorded TD50 value; entry: C=CCl
OUTPUT: 8.45 mg/kg/day

----------
system: rodent lifetime carcinogenesis bioassay, tumor incidence TD50; experiment: carcinogenic potency in animals, long-term in vivo studies, CPDB compilation (AID 1745844); conditions: rat; strain Fischer 344; females; by gavage; site: liver + thyroid gland; lesion: hepatocellular carcinoma + neoplastic nodule + follicular-cell adenoma + follicular-cell carcinoma; dosed 104 weeks; study length 105 weeks
ENDPOINT LABEL: TD50 (mg/kg/day)
# number only, unit mg/kg/day dropped from output

INPUT: Find the measured TD50 of CCCC(Cl)CCCC(Cl)CCC(Cl)CCC(Cl)CCC(Cl)CCCC(Cl)CCC (stereo unspecified) and report it.
OUTPUT: 583

----------
tested on: rodent lifetime carcinogenesis bioassay, tumor incidence TD50; test: carcinogenic potency in animals, long-term in vivo studies, CPDB compilation (AID 1745844); conditions: mouse; strain Charles River CD1; males; in feed; site: lung; lesion: alveolar-cell carcinoma; dosed 93 weeks; study length 100 weeks
Activity calls are given as the source filed them. The rule behind the calls is not given here.
ENDPOINT LABEL: TD50

INPUT: Answer with the recorded TD50 for the molecule listed here: O=C1CN(N=Cc2ccc([N+](=O)[O-])o2)C(=O)N1
OUTPUT: 17000 mg/kg/day (inactive)

----------
test system: rodent lifetime carcinogenesis bioassay, tumor incidence TD50; assay: carcinogenic potency in animals, long-term in vivo studies, CPDB compilation (AID 1745844); conditions: mouse; strain ICR/Jcl; females; in drinking water; site: lung; lesion: adenocarcinoma; dosed 104 weeks; study length 104 weeks
Calls of active or inactive are those of the source. How the calls were made is not given here.
ENDPOINT LABEL: TD50

INPUT: Determine from records and report TD50 for O=S(O)O
OUTPUT: 100000 mg/kg/day (inactive)

----------
tested on: rodent lifetime carcinogenesis bioassay, tumor incidence TD50; experiment: carcinogenic potency in animals, long-term in vivo studies, CPDB compilation (AID 1745844); conditions: mouse; strain Swiss; males; inhaled; site: liver; lesion: angiosarcoma; dosed 52 weeks; study length 126 weeks
ENDPOINT LABEL: TD50
Give the value; after it, write the unit.

INPUT: Indicate the recorded TD50 value for this compound: C=C(Cl)Cl
OUTPUT: 566 mg/kg/day

----------
system: rodent lifetime carcinogenesis bioassay, tumor incidence TD50; test: carcinogenic potency in animals, long-term in vivo studies, CPDB compilation (AID 1745844); settings: mouse; strain Monohybrid cross offspring of B6CF1 (C57BL/6 x BALB/c); males; in feed; site: pituitary gland; lesion: adenoma; dosed 147 weeks; study length 158 weeks
ENDPOINT LABEL: TD50

INPUT: Specify measured TD50 for CC/C(=C(/CC)c1ccc(O)cc1)c1ccc(O)cc1 .
OUTPUT: 0.0794 mg/kg/day
